The reported measurements were obtained from ChEMBL document CHEMBL3988442.

- Tested on: Wolbachia pipientis
- Assay Details: Anti-Wolbachia Cell-Based Screen
- Type: functional
- Design: scale not given: in the data most compounds retested in dose-response had high values
- Run Parameters: 5 µM
In all, about 48,000 compounds went through this assay and about 13,000 (27%) showed an effect of 50% or more. This is one part of the list.
We label by threshold. Values of Percent Effect strictly beneath 20% are t. Values of 20% and up are f.

CC(C)(C)OC(=O)N1CC(=O)N(Cc2ccco2)CC(O)C1 (centres undefined): f
CC(=O)C(C)CC(=O)N(Cc1cccc(C)c1)C(C)C (centres undefined): t
CC(CC#N)NC(=O)c1cc(Br)c2c(c1)OCCO2 (centres undefined): t
CN(CC(O)C1CC1)C(=O)Nc1ccc(F)c(-n2cccc2)c1 (centres undefined): t
CC(C)(C)OC(=O)NCC1CCN(C(=O)c2ccc(F)cc2F)C1 (centres undefined): t
CC1=N[C@@]2(CC[C@@H]3CN(Cc4ccc(C)cc4)C[C@@H]32)C(=O)N1CC1CC1.O=C(O)C(F)(F)F: f

Prompt line: Just wondering, is Percent Effect of O=C(O)C(F)(F)F.O=C(c1cccc(F)c1)N1CCC2(CC1)CC(N1CCOCC1)C2 below 20%?
Response line: f

Prompt line: What about COCCN1C(=O)[C@]2(CC[C@@H]3CN(Cc4ccccc4F)C[C@@H]32)N=C1C.O=C(O)C(F)(F)F ?
Response line: f

Prompt line: What about CC(=O)N1CCC(CSCc2ccco2)CC1 ?
Response line: t
